From: PubChem BioAssay (NCI)

I'd appreciate it if you could supply growth inhibition values for the items below.
test: NCI Yeast Anticancer Drug Screen. Data for the rad18 strain (AID 177); conditions: S. cerevisiae rad18 mutant growth inhibition; at 3.7 µM; stronger effect = higher value
Compounds without any hit were thinned out: in the full panel of roughly 79,000, 15% have a hit.
Numbers only, in %.

Past entries and their recorded results:
NNC(=S)Nc1cccc(Cl)c1 | -11
CN(N=O)C(=O)N[C@@H](C=O)[C@@H](O)[C@H](O)[C@H](O)CO | 0
CO[C@@]12[C@H](COC(N)=O)C3=C(C(=O)C(C)=C(N)C3=O)N1C[C@@H]1N[C@@H]12 | 60
CCCCC(=O)c1c(O)nc2sccn2c1=O | 20
Cc1cc(C)c(N2C(=O)CC(Sc3ccccc3N)C2=O)c(C)c1 (stereo unspecified) | -45
CC1(C)C(C=O)=CCC1CC(N)=O (stereo unspecified) | 0
Clc1cc(Cc2ccc(N=C/C=C/c3ccccc3)c(Cl)c2)ccc1N=C/C=C\c1ccccc1 | -11
COc1ccc(SCc2cc(OC)ccc2OC)cc1 | -5
Cc1ccc(S(=O)(=O)N/N=C/C2(c3ccccc3)c3ccccc3-c3ccccc32)cc1 | 52
CC(=O)Oc1ccc(C(=O)c2ccccc2)c(O)c1 | 13

Proceeding to the next compound to report its growth inhibition.
Form: compound = CN(C)CC1CCCc2ccccc2C1=O (stereo unspecified) ; growth inhibition = 7

###

I'd appreciate it if you could supply growth inhibition values for the items below.
experiment: NCI Yeast Anticancer Drug Screen. Data for the mec2-1 strain (AID 157); conditions: S. cerevisiae mec2-1 strain, at 1.2 µM, stronger effect = higher value
About 79,000 compounds went through this panel and 15% of them were active in at least one assay; those are over-represented in the sample as a whole.
Numbers only, in %.

Past entries and their recorded results:
S=C1SCN(CCc2ccccc2)CN1CCc1ccccc1 | -3
OB(O)c1ccccc1C#Cc1ccccc1B(O)O | -6
COc1cc(NCc2ccc3nc(N)nc(N)c3c2C)cc(OC)c1OC | -4
Cc1cc(O)c2c(c1)C(=O)C=C(Br)C2=O | 40
O=C1CC(=O)N(C2CCCCC2)C(=O)N1c1ccccc1S(=O)(=O)Oc1ccccc1 | 11

Fill in growth inhibition for each of the 2 compounds listed.
1. C/C(=N\NC(=S)NC1CCCC1)c1ccccn1
2. Cc1c2cc[n+](CCN3CCCCC3)cc2c(C)c2c1[nH]c1ccc(O)cc12

a:
2
-2

###

assay: NCI Yeast Anticancer Drug Screen. Data for the mlh1 strain (AID 171);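 further: 0% = growth of vehicle-treated control cultures of the same strain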; details: S. cerevisiae mlh1 strain growth inhibition; at 3.7 µM
This is part of a sample that, as a whole, favours compounds with a hit. Of some 79,000 tested, about 15% had one in any assay. Calls of active or inactive are those of the source. No stated cut-off is given here; in the data, active means growth inhibition above about 70%; inactive means the rest.
Choose one outcome from this list and give only that: yes (active), no (inactive)

Some solved entries appear below for comparison.
Cc1ccc(S(=O)(=O)N/N=C/C2(c3ccccc3)c3ccccc3-c3ccccc32)cc1 | no
CCOC(=O)C(NC(=O)CC)(N1CCN(c2cc3c(cc2F)c(=O)c(C(=O)O)cn3C2CC2)CC1)C(F)(F)F (stereo not given) | no
Cc1cccc(/C=N/NC(=S)N(C)CCc2ccccn2)n1 | yes
COc1ccc(/C=C2\SC(=S)N(C=C3C(=O)NC(=S)NC3=O)C2=O)cc1OC | no
Cc1cc(N=C2C=CC(=[N+](C)C)C=C2)c(N)cc1N | no

q: I would be grateful if you could indicate the recorded call for CC1CCC2(C(=O)O)CCC3(C)C(=CCC4C5(C)CC(O)C(O)C(C)(CO)C5C(O)CC43C)C2C1C (stereo not given) .
a: no

q: I would be grateful if you could indicate the recorded call for O=C(CCc1ccccc1)ON1C(=S)C(c2ccccc2)(c2ccccc2)N=C1Sc1ccccc1 .
a: no

q: I would be grateful if you could indicate the recorded call for CN(C)c1ccc(N=Nc2ccccn2)cc1 .
a: no
